Test system: MS2 coat protein
Protocol Summary: apparent KD of MS2 coat protein; designed switch direction (-1 OFF switch, 1 ON switch): -1; higher = weaker reporter binding
Condition Description: input ligand: none
Measured Attribute: apparent KD of MS2 coat protein (nM)
Give the value, in units of nM, as a plain number.

Please review the following examples before continuing.
>>> quantitative_readout("AACCUGAGGCUUUGCUUUAGGUGUACAUGAGGAUCACCCAUGUAGGAUAUGGUAGGCUUUGCUUACCAGAAGGACAUUAUGAUU [JL ENG3 1.18] (Eterna round: R96, puzzle: Exclusion NG 3)")
37.1
>>> quantitative_readout("CGAUGACCGGUGAGGAUAUCGUGUUCGAAAGAACGUGAGAAGGCACAUGAGGAUCACCCAUGUGAUCCUCAUCG [Omei Ex4B A33] (Eterna round: R97, puzzle: Brourd's mod of Exclusion 4)")
18.2
>>> quantitative_readout("UUAAUUAGCAGGCAAGAUCAUUACAUGAGGAUCACCCAUGUCGAGGAUAUCAGCUCGAUUAGAGCUGAGAAGGCGACAGCCUGC [ExNG3/13-A1] (Eterna round: R96, puzzle: Exclusion NG 3)")
382

Ask: What does the record list as apparent KD of MS2 coat protein for CGCGUUUAUGUAGGAUAUGCCUGGCGUGCCUUAGCAGAAGGACAUGAGGAUCACCCAUGUAACAUGAGGCUCACCCAUGUCGCA (Eterna round: R96, puzzle: Exclusion NG 1) ?
Reply: 167

Ask: What does the record list as apparent KD of MS2 coat protein for GUAUAACAUGUAGGAUAUGCGUGGCGAAGCUAUGCAGAAGGACAUGAGGAUCACCCAUGUUAUAGCGUCUGCGUACAGAUGCUA [Mat - Exclusion NG 1 - Mod of JL - D93] (Eterna round: R96, puzzle: Exclusion NG 1) ?
Reply: 24.5

Ask: What does the record list as apparent KD of MS2 coat protein for ACAUGUCAUUGAGGAUAUUGCACACAUGAGGAUCACCCAUGUAUACGGAUGCUCUUACGUGAGUUCGAGAAGGCGAUGUACAUU [Ex NG2 #89] (Eterna round: R96, puzzle: Exclusion NG 2) ?
Reply: 160

Ask: What does the record list as apparent KD of MS2 coat protein for CCAAGCUACUUCAUUAUCCACAUGAGGAUCACCCAUGUCUAGGCAAUUAUGACCUGCCCGUCAGGAGCUCGUCUUAU [Sensor-V1 #40] (Eterna round: R97, puzzle: Sensor, turn-off variant 1) ?
Reply: 28.7

Ask: What does the record list as apparent KD of MS2 coat protein for AAGUCCUUGUGGACACAUGAGGAUCACCCAUGUGCGGUCAGCGAGGAUAUCGGUCUAUAAUGUGACGAGAAGGCGCGGACCGAU [Ex NG3 #61] (Eterna round: R96, puzzle: Exclusion NG 3) ?
Reply: 21.3

Ask: What does the record list as apparent KD of MS2 coat protein for AUAAUGUGAGGAUAUCGAGACUACUGCCUCGGCAGUAGUCUCGAGAAGGCACAUGAGGAUCACCCAUGUGAUCA [E4/2-A2] (Eterna round: R97, puzzle: Exclusion 4) ?
Reply: 1190
